Test: VP16 counterscreen qHTS for inhibitors of ROR gamma transcriptional activity;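 also: Gal4-VP16 expression switched on by copper sulfate through the metallothionein promoter; nearly all actives have a fitted effect of over 50% in size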; also: potency is read from the fitted curve at half-maximal effect
Conditions: Drosophila S2 Gal4-VP16 UAS-luciferase, luminescence, 20 h; series mostly up to 53.6 µM
Screen size: about 310,000 compounds; about 11,000 (3.5%) were called active. Another 8% or so got no clear call; they are omitted. This is one part of a sample in which actives are shown more often than they occur.
value-kind: Potency

{"compound": "O=C(CSc1ncn[nH]1)Nc1nsc(-c2ccccc2)n1", "result": "inactive"}
{"compound": "FC(F)(F)c1cccc(N/N=C/c2ccccc2)c1", "result": "inactive"}
{"compound": "Cn1cnc2c1c(=O)n(Cc1ccccc1C#N)c(=O)n2C", "result": "inactive"}
{"compound": "Cc1cc(C(=O)N/N=C/c2cc([N+](=O)[O-])cc(C)c2O)n[nH]1", "result": "14.1 µM (active)"}
{"compound": "COc1cc(C(=O)NCc2cc3cc(Cl)ccc3n2C)cc(OC)c1OC", "result": "inactive"}

Would you mind giving Potency for every compound in the list below?
1. FC(F)(F)c1nc2ccccc2nc1N/N=C/c1ccc(Cl)cc1
2. O=C(CSc1nc(-c2ccccc2)cs1)Nc1cccc([N+](=O)[O-])c1
3. Cc1[nH]n(C(N)=S)c(=O)c1N=Nc1ccc(Cl)cc1Cl
4. COCCCNC(=S)NNC(=O)C(O)(c1ccccc1)c1ccccc1
5. Cc1cc(C)cc(NC(=O)C2CCCN2S(=O)(=O)c2cccc3cccnc23)c1 (configuration not stated)
6. O=C(CSc1nc2ccccc2s1)Nc1ccc(C(=O)O)cc1
7. COc1ccc(C2CC(c3ccccc3)Nc3ncnn32)cc1 (configuration not stated)
8. Cc1cccc(N=Nc2c(C)[nH]n(-c3ccccc3)c2=O)c1

Result block:
10 µM (active)
inactive
2.82 µM (active)
inactive
inactive
inactive
inactive
inactive

Look up Potency for the entries below, preserving their order.
1. CCOc1ccc(NC(=O)CCC(=O)N/N=C/c2ccc([N+](=O)[O-])s2)cc1
2. NS(=O)(=O)c1ccc(CCNC(=O)c2nc(CS(=O)(=O)c3ccc(Cl)cc3)no2)cc1
3. COc1ccc(NC(=O)CCNC(=O)Cn2cnc3sc4c(c3c2=O)CCCC4)cc1OC
4. CCOCCCNc1c(CC)c(C)c(C#N)c2nc3ccccc3n12

Result block:
inactive
inactive
inactive
inactive

---

Test: VP16 counterscreen qHTS for inhibitors of ROR gamma transcriptional activity;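 also: Gal4-VP16 expression switched on by copper sulfate through the metallothionein promoter; nearly all actives have a fitted effect of over 50% in size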
Conditions: Drosophila S2 Gal4-VP16 UAS-luciferase, luminescence, 20 h; series mostly up to 53.6 µM
Out of some 310,000 compounds screened, about 11,000 (3.5%) were called active. Another 8% or so got no clear call; they are omitted. The call rests on the fitted dose curve; in most records, active means well fitted inhibition curve with a large enough effect; inconclusive means small, poorly fitted or top-dose-only effect, or effect the other way; inactive means flat fitted curve, though single readings scatter. The list comes from a sample in which actives are over-represented; it also holds close analogues and randomly drawn compounds.
Respond with a class label; see TRUE = active, FALSE = inactive

Example results:
{"compound": "CC1CCN(c2ccc(C(=O)NCc3ccc4c(c3)OCO4)cc2[N+](=O)[O-])CC1", "assigned-class": "FALSE"}
{"compound": "CCN(Cc1ccncc1)C(=O)c1cccc(S(=O)(=O)N2CCOCC2)c1", "assigned-class": "FALSE"}
{"compound": "Nc1c(C(=O)NCc2ccccc2)nnn1Cc1cccc(Cl)c1", "assigned-class": "FALSE"}
{"compound": "CCn1c(NCCc2ccc(OC)c(OC)c2)nc2c1c(=O)n(C)c(=O)n2C", "assigned-class": "FALSE"}
{"compound": "O=C(N/N=C/c1cc([N+](=O)[O-])ccc1O)/C(=C\\c1cccs1)NC(=O)c1ccccc1", "assigned-class": "TRUE"}

Query block: What classification did CC(CCc1ccc(O)cc1)NCc1ccc(Cl)cc1Cl (stereo not given) end up with in this test?
Result block: FALSE

Query block: Check the results log: what was the call for CCCOc1cccc(C(=O)Nc2ccccc2C(=O)N2CCN(C)CC2)c1 ?
Result block: FALSE
